Could you please report measured koff for the items listed next?
targetUnderTest: T1, human ST2L (human, UniProt Q01638 19-328, limits assumed)
T1 construct: also called IL-1R4; IL-33Ra
T1 sequence (looked up): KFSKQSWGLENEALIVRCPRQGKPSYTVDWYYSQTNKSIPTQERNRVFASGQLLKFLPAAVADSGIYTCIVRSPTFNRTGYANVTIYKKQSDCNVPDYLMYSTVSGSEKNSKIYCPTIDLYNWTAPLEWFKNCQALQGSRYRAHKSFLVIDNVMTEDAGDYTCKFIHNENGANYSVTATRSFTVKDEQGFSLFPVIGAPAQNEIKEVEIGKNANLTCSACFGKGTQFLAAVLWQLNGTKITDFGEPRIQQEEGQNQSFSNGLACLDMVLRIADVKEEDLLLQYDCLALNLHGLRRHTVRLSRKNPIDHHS
assayText: affinity table; method not stated
Supply the numeric figure in s⁻¹, leaving out any unit text.

Tell me the measured koff of STLM218 (antibody, from another filing, V domains shown) VH: EVQLLESGGGLVQPGGSLRLSCAASGFTFSVDSMFWVRQAPGKGLEWVSSIEGNGGATYYADSVKGRFTISRDNSKNTLYLQMNSLRAEDTAVYYCARDPWSTEGSFFVLDYWGQGTLVTVSS VL: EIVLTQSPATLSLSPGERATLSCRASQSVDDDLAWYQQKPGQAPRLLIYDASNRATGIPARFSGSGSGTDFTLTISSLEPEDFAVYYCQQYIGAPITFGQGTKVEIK , please. 0.000224

Could you do the same for STLM214 (antibody, from another filing, V domains shown) VH: EVQLLESGGGLVQPGGSLRLSCAASGFTFSSYDMFWVRQAPGKGLEWVSDIKGEGGRTAYADSVKGRFTISRDNSKNTLYLQMNSLRAEDTAVYYCARDPWSTEGSFFVLDYWGQGTLVTVSS VL: EIVLTQSPATLSLSPGERATLSCRASQSVDDDLAWYQQKPGQAPRLLIYDASNRATGIPARFSGSGSGTDFTLTISSLEPEDFAVYYCQQYIDAPLTFGQGTKVEIK , please? 0.000299
